FYI, the data here is from patent US10308643B2.

- Target under test: HDAC1 enzyme (Homo sapiens, UniProt Q13547)
- Construct: transducing full length HDAC1 and HDAC6 genes into Sf-9 insect cells; GST; purchased SignalChem; host or cells: Sf-9 insect cells
- Sequence (Q13547 whole entry): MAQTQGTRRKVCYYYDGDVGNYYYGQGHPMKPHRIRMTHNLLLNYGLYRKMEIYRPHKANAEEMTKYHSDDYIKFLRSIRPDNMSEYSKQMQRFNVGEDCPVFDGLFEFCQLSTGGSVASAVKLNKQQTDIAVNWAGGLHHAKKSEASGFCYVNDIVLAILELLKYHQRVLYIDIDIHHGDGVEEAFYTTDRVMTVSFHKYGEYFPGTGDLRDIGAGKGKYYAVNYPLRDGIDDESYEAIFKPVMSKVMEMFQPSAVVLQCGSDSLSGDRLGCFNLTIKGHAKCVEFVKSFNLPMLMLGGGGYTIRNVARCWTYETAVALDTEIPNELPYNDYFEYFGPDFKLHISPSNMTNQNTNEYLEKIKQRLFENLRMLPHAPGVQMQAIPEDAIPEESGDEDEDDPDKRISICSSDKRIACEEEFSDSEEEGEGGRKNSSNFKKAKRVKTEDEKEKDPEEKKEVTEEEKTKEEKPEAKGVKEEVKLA
- Assay comment: HDAC1/6 Enzyme Inhibitory Assay (HDAC-Glo I/II Assay kit), HDAC1
- Format: biochemical
- Experimental context: 1 μM test compound; wells without enzyme = 100% inhibition; read-out: HDAC1 inhibitory rate (%) (1 μM)
Parameter: inhibition at 1 µM (%)

                                   compound           parameter  value_measured
0  O=C(N[C@@H]1CCCC[C@H]1N1Cc2ccc(-c3noc(C(F)(F)F)n3)cc2C1=O)C1CC1 (relative stereo) [Example 12]  inhibition at 1 µM               9

A. CC(CO)(CCl)C(=O)N[C@@H]1CCCC[C@H]1N1Cc2ccc(-c3noc(C(F)(F)F)n3)cc2C1=O (relative stereo) [Example 203]
B. CC(C)(C)OC(=O)N[C@@H]1CCC[C@H]1N1Cc2ccc(-c3noc(C(F)(F)F)n3)cc2C1=O [Example 140]
[in] Higher inhibition at 1 µM: A or B ? Return value: the label identifying the chosen record.
[out] B

* * *

- Target under test: HDAC9 enzyme (Homo sapiens, UniProt Q9UKV0)
- Construct: transducing full length HDAC9 gene into Sf-9 insect cells; made in house; host or cells: Sf-9 insect cells
- Sequence (Q9UKV0 whole entry, species assumed): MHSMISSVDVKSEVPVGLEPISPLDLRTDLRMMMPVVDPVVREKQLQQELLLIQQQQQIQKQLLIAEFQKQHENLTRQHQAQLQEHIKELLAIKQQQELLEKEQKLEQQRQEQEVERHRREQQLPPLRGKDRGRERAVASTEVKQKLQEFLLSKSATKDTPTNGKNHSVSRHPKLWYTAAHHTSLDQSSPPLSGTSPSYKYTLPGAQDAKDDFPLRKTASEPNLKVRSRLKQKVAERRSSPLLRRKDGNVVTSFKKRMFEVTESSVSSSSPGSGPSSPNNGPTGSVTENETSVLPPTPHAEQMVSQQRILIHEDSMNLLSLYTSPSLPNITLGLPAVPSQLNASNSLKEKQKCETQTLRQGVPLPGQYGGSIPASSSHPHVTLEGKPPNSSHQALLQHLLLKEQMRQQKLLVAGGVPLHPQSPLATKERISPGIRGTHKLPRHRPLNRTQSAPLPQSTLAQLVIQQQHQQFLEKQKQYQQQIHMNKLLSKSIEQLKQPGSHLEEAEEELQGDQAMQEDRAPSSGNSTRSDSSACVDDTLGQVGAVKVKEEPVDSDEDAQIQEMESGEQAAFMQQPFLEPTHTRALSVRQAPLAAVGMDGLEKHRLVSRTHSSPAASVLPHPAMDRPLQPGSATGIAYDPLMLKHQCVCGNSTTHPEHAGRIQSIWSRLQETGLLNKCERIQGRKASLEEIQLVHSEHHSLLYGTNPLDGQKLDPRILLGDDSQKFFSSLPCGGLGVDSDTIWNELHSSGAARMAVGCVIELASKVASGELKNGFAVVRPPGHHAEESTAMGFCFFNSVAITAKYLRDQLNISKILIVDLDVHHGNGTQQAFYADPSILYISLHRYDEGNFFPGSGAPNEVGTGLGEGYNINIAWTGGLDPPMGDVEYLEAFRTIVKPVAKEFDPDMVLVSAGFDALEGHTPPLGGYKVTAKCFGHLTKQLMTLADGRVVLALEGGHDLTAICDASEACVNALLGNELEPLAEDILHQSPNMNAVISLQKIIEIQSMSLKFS
- Assay comment: HDAC9 Enzyme Inhibitory Assay (HDAC-Glo class IIa)
- Assay type: biochemical
- Experimental context: 1 μM test compound; wells without enzyme = 100% inhibition; read-out: HDAC9 inhibitory rate (%) (1 μM)
Parameter: inhibition at 1 µM (%)

In [3]: df
Out[3]:
                                   compound  value_measured
0  O=C1CC(C(=O)N[C@@H]2CCCCC2N2Cc3ccc(-c4noc(C(F)(F)F)n4)cc3C2=O)CN1 (stereo in doubt)              31

a. O=C1C[C@](Cc2ccccc2)(N2Cc3ccc(-c4noc(C(F)(F)F)n4)cc3C2=O)CN1
b. CN1CCC[C@H]1C(=O)N[C@@H]1CCCC[C@H]1N1Cc2ccc(-c3noc(C(F)(F)F)n3)cc2C1=O
c. CC(C)(C)N1CC(C(=O)N[C@@H]2CCCC[C@H]2N2Cc3ccc(-c4noc(C(F)(F)F)n4)cc3C2=O)C1
[in] Thanks in advance: please rank these 3 entries by inhibition at 1 µM, highest to lowest. Kindly provide the labels arranged according to the requested ordering.
[out] a, b, c

A. O=C(Cc1ccc(F)cc1)N1CCC(N2Cc3ncc(-c4noc(C(F)(F)F)n4)cc3C2=O)C1 (stereo not drawn)
B. N[C@H]1CCC[C@@H]1N1Cc2ccc(-c3noc(C(F)(F)F)n3)cc2C1=O
[in] Higher inhibition at 1 µM: A or B ? Return value: the label identifying the chosen record.
[out] A

1. O=C(N[C@@H]1CCCC[C@H]1N1Cc2ccc(-c3noc(C(F)(F)F)n3)cc2C1=O)N1CCS(=O)(=O)CC1
2. CC(C)(C)OC(=O)N1CC[C@H](N2Cc3ccc(-c4noc(C(F)(F)F)n4)cc3C2=O)[C@@H](c2ccccc2)C1
[in] Of 1 and 2 , which shows the smaller inhibition at 1 µM value? Return value: the label identifying the chosen record.
[out] 1
(1: 23%, 2: 84%)

A. O=C(N[C@@H]1CCCC[C@H]1N1Cc2ccc(-c3noc(C(F)(F)F)n3)cc2C1=O)C1CC1 (relative stereo) [Example 12]
B. CC1(C(=O)N[C@@H]2CCCC[C@@H]2N2Cc3ccc(-c4noc(C(F)(F)F)n4)cc3C2=O)COC1 (relative stereo)
[in] Higher inhibition at 1 µM: A or B ? Return value: the label identifying the chosen record.
[out] B
(B: 85%, A: 48%)
